Test system: Cricetinae gen. sp.
measurement description: Compound at an oral dose of 20 mg/Kg (90 min prior to instillation of elastase) was tested for the inhibition of elastase-induced lung hemorrhage in hamster
Assay type: functional, Cricetulus griseus
inhibition in vivo at 20 mg/kg values for the compounds below.
Answer in %, number only, no unit symbol.

CC(C)C(NC(=O)Cn1c(-c2cccs2)ncc(NC(=O)OCC(F)(F)F)c1=O)C(=O)C(F)(F)F (centres undefined)    60
CC(C)C(NC(=O)Cn1c(-c2cccs2)ncc(NC=O)c1=O)C(=O)C(F)(F)F (centres undefined)    58
CSC(=O)Nc1cnc(-c2ccccc2)n(CC(=O)NC(C(=O)C(F)(F)F)C(C)C)c1=O (centres undefined)    57

As a next step, examine the compound that follows.
What value of inhibition in vivo at 20 mg/kg has been reported for the following compound? CC(C)C(NC(=O)Cn1c(-c2ccccc2)ncc(NC(=O)OCC(F)(F)F)c1=O)C(=O)C(F)(F)F (centres undefined) 47

* * *

pKi values for the compounds below.
target entity: Neutrophil elastase (Homo sapiens)
Sequence (P08246 whole entry): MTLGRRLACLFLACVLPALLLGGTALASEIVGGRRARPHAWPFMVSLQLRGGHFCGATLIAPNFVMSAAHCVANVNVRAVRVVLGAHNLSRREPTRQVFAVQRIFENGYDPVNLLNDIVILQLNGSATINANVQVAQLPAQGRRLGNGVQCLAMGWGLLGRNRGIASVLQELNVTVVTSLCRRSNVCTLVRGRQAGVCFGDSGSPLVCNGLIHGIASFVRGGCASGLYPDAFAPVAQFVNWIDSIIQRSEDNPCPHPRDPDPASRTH
measurement description: In vitro inhibition of human leukocyte elastase mediated hydrolysis of the synthetic substrate MeO-Suc-Ala-Ala-Pro-Val-pNA
When answering, recall that pKi equals minus log10 of the concentration in mol/L, and write that number alone.

// solved cases for pKi follow
CC(C)C(NC(=O)Cn1c(-c2ccc(F)cc2)ncc(NS(=O)(=O)C2CCCCC2)c1=O)B1OC(C)(C)C(C)(C)O1 (stereo not drawn)    9.68
CC(C)C(NC(=O)Cn1c(-c2ccc(C(F)(F)F)cc2)ncc(NC(=O)OCc2ccccc2)c1=O)C(=O)C(F)(F)F (stereo not drawn)    7.38
CC(C)C(NC(=O)Cn1c(-c2cc(C(F)(F)F)cc(C(F)(F)F)c2)ncc(NC(=O)OCc2ccccc2)c1=O)C(=O)C(F)(F)F (stereo not drawn)    7.14
COC(=O)Nc1cnc(-c2cccs2)n(CC(=O)NC(C(=O)C(F)(F)F)C(C)C)c1=O (stereo not drawn)    7.38
CC(C)C(NC(=O)Cn1c(-c2ccc(NC(=O)C(F)(F)F)cc2)ncc(NC(=O)OCc2ccccc2)c1=O)C(=O)C(F)(F)F (stereo not drawn)    7.37
CC(C)C(NC(=O)Cn1c(-c2cccs2)ncc(N)c1=O)C(=O)C(F)(F)F (stereo not drawn)    7.28

// lookup pKi | system=Neutrophil elastase (Homo sapiens) | key= CC(C)C(NC(=O)Cn1c(-c2cccs2)ncc(NC(=O)OCC(F)(F)F)c1=O)C(=O)C(F)(F)F (stereo not drawn) 7.32

For CC(C)C(NC(=O)Cn1c(-c2cc(F)cc(F)c2)ncc(N)c1=O)C(=O)C(F)(F)F (stereo not drawn) then? 6.57

* * *

measurement description: Half life in plasma in hamster at 10 mg/kg oral dose
Type: ADME, organism-based
Set-up: dose 10 mg/kg, route oral
setup conditions: cricetinae
readout type: half-life (h)
Answer in h, number only, no unit symbol.

What value of half-life has been reported for the following compound? CC(C)C(NC(=O)Cn1c(-c2ccc(F)cc2)ncc(N)c1=O)C(=O)C(F)(F)F (stereo unspecified) 1.35

* * *

target entity: Neutrophil elastase (Homo sapiens, UniProt P08246)
measurement description: In vitro inhibition of human leukocyte elastase mediated hydrolysis of the synthetic substrate MeO-Suc-Ala-Ala-Pro-Val-pNA
readout type: log10 Ki (log10 of the value in nM)
Lab note - Ki converted to log10 from values in nM.

Cc1cncc(C)c1COC(=O)Nc1cnc(-c2ccc(F)cc2)n(CC(=O)NC(B2OC(C)(C)C(C)(C)O2)C(C)C)c1=O (stereo not drawn)    -0.02
CSC(=O)Nc1cnc(-c2ccccc2)n(CC(=O)NC(C(=O)C(F)(F)F)C(C)C)c1=O (stereo not drawn)    1.20
CC(C)C(NC(=O)Cn1c(-c2cc(F)cc(F)c2)ncc(NC(=O)OCc2ccccc2)c1=O)C(=O)C(F)(F)F (stereo not drawn)    1.30

What value of log10 Ki has been reported for the following compound? CC(C)C(NC(=O)Cn1c(-c2ccc(F)cc2)ncc(NS(=O)(=O)C2CCCCC2)c1=O)C(=O)C(F)(F)F (stereo not drawn) 0.20

For CC(C)c1ncc(NC(=O)OCc2ccccc2)c(=O)n1CC(=O)NC(C(=O)C(F)(F)F)C(C)C (stereo not drawn) then? 2.23

For CNc1cnc(-c2ccc(F)cc2)n(CC(=O)NC(C(=O)C(F)(F)F)C(C)C)c1=O (stereo not drawn) then? 1.66

For CC(C)C(NC(=O)Cn1c(-c2cccs2)ncc(N)c1=O)B1OC(C)(C)C(C)(C)O1 (stereo not drawn) then? 0.69

For CC(C)C(NC(=O)Cn1c(-c2cccs2)ncc(NC(=O)OCc2ccccc2)c1=O)C(=O)C(F)(F)F (stereo not drawn) then? 1.04
